# Target Entity: Sut1 (UniProt P53032)
# Sequence: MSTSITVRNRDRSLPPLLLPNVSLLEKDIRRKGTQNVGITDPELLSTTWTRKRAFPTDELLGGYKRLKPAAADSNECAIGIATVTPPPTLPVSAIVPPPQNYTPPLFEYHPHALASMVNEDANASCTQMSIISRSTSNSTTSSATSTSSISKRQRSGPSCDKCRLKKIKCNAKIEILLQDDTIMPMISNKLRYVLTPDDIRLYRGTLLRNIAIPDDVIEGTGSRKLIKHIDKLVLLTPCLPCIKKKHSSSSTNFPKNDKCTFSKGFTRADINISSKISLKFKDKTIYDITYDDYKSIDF
# Experiment Notes: PBM E-score (8-mer binding enrichment) (E-score (-0.5 to 0.5)); higher = stronger / more preferred TF binding
# Condition Notes: protein concentration: 200 nM; construct: GST-full length
The full ranking holds about 33,000 sequences; the median of “E-score (-0.5 to 0.5)” is about -0.017, and the highest 2% start at about 0.3. This excerpt belongs to a sample that is enriched for the highest values.
I'd appreciate it if you could supply PBM E-score values for the items below.
Answers are plain numbers.

Consider the worked cases shown below.
INSERT INTO measurements (sequence_content, target_entity, recorded_result) VALUES
  ('AAATATAC', 'Sut1 (UniProt P53032)', 0.217),
  ('CTCAGGAC', 'Sut1 (UniProt P53032)', -0.127),
  ('CCCGGATA', 'Sut1 (UniProt P53032)', 0.123),
  ('CGAGTTCA', 'Sut1 (UniProt P53032)', -0.149),
  ('AAATGTAG', 'Sut1 (UniProt P53032)', 0.0326);

Hi! Can you tell me PBM E-score for each of these sequences?
1. ACCGGAGG
2. CGTCCTTA
3. AGTATCGG
4. AAATGTAT
5. GTATATAA
6. CAGTTTTA
7. ATATACTA

result:
0.133
-0.176
0.176
0.304
0.277
0.0952
0.305

Data credit: the supplement of paper PMC3334620
